So I've got a bunch of molecules here, and I need their difference in startle response values.
Test system: Danio rerio larvae (5 dpf)
Test Description: difference in startle response vs DMSO (percentage points); higher = stronger startle than DMSO
Protocol Conditions: 10 µM; exposure time 6 h
Structures can show the parent of a compound that is named as a salt.
Answers are plain numbers.

As a guide, the following entries are already answered.
[[record]]
molecule = "C[C@@H](O)[C@H]1C(=O)N2C(C(=O)O)=C(S[C@@H]3CN[C@H](C(=O)N(C)C)C3)[C@H](C)[C@H]12 [Meropenem (hydrate)]"
reported_metric = "difference in startle response"
reported_value = -1.18

[[record]]
molecule = "Cc1cc(C(=O)NNCc2ccccc2)no1 [Isocarboxazid]"
reported_metric = "difference in startle response"
reported_value = 3.52

[[record]]
molecule = "CC(C)(O)CNc1nc(Nc2ccnc(C(F)(F)F)c2)nc(-c2cccc(C(F)(F)F)n2)n1 [Enasidenib]"
reported_metric = "difference in startle response"
reported_value = -3.05

[[record]]
molecule = "CN(C)CCCN1c2ccccc2CCc2ccccc21 [Imipramine (hydrochloride)]"
reported_metric = "difference in startle response"
reported_value = -8.78


Please give difference in startle response for each item listed below.
1. C[C@H]1O[C@H](O[C@H]2[C@H](O)[C@@H](O)[C@@H](O[C@H]3[C@H](O)[C@@H](O)C(O)O[C@@H]3CO)O[C@@H]2CO)[C@H](O)[C@@H](O)[C@@H]1N[C@H]1C=C(CO)[C@@H](O)[C@H](O)[C@H]1O (stereo partly specified) [Acarbose]
2. CC(=O)CC(c1ccccc1)c1c(O)c2ccccc2oc1=O (racemic) [(±)-Warfarin]
3. CC(O)(P(=O)(O)O)P(=O)(O)O [Etidronate (sodium salt)]
4. CC[C@H](C)C(=O)O[C@H]1C[C@@H](C)C=C2C=C[C@H](C)[C@H](CC[C@@H]3C[C@@H](O)CC(=O)O3)[C@H]21 [Lovastatin]
5. CC(C)(Oc1ccc(C(=O)c2ccc(Cl)cc2)cc1)C(=O)O [Fenofibric Acid]
6. C[C@H]1CN(C[C@H](Cc2ccccc2)C(=O)NCC(=O)O)CC[C@@]1(C)c1cccc(O)c1 [Alvimopan]
7. CCCCc1ncc(/C=C(\Cc2cccs2)C(=O)O)n1Cc1ccc(C(=O)O)cc1 [Eprosartan (mesylate)]

1: -8.81; 2: -1.45; 3: 2.23; 4: 2.77; 5: 4.69; 6: 0.764; 7: -7.77

====

So I've got a bunch of molecules here, and I need their difference in startle response values.
Tested on: Danio rerio larvae (5 dpf)
Test Description: difference in startle response vs DMSO (percentage points); higher = stronger startle than DMSO
Protocol Conditions: 10 µM; exposure time 6 h
Where a name gives a salt, the structure may show the parent alone.
Numbers only.

[[record]]
molecule = "C1N2CN3CN1CN(C2)C3 [Methenamine Hippurate]"
reported_value = 5.89

[[record]]
molecule = "Cc1cccc(Nc2ccncc2S(=O)(=O)NC(=O)NC(C)C)c1 [Torasemide]"
reported_value = -10.7

[[record]]
molecule = "CN(C)CCOC(c1ccc(Cl)cc1)c1ccccn1 (stereo not given) [Carbinoxamine (maleate)]"
reported_value = 3.19

[[record]]
molecule = "O=c1[nH]c2ccccc2n1CCN1CCN(c2cccc(C(F)(F)F)c2)CC1"
reported_value = 11.6

[[record]]
molecule = "Cc1cc2nc3c(=O)[nH]c(=O)nc-3n(C[C@H](O)[C@H](O)[C@H](O)COP(=O)(O)O)c2cc1C [Riboflavin 5'-monophosphate (sodium salt hydrate)]"
reported_value = -0.41

[[record]]
molecule = "Cn1c(=O)c2nc[nH]c2n(C)c1=O"
reported_value = 5.34

[[record]]
molecule = "NCCCC(O)(P(=O)(O)O)P(=O)(O)O [Alendronate (sodium hydrate)]"
reported_value = 0.325

[[record]]
molecule = "CCNC(=O)[C@@H]1CCCN1C(=O)[C@H](CCCNC(=N)N)NC(=O)[C@H](CC(C)C)NC(=O)[C@@H](CC(C)C)NC(=O)[C@H](Cc1ccc(O)cc1)NC(=O)[C@H](CO)NC(=O)[C@H](Cc1c[nH]c2ccccc12)NC(=O)[C@H](Cc1c[nH]cn1)NC(=O)[C@@H]1CCC(=O)N1 [Leuprorelin (acetate)]"
reported_value = -0.397

[[record]]
molecule = "Nc1nc(=O)n([C@@H]2CS[C@H](CO)O2)cc1F"
reported_value = -4.62

[[record]]
molecule = "CC(C)(C)NCC(O)c1ccc(O)c(CO)c1 (stereo not given)"
reported_value = 1.17


Please give difference in startle response for each item listed below.
1. CCCC(CCC)C(=O)O [Valproic Acid (sodium salt)]
2. C[C@@H]1C/C=C/C=C/C=C/C=C/[C@H](O[C@@H]2O[C@H](C)[C@@H](O)[C@H](N)[C@@H]2O)C[C@@H]2O[C@](O)(C[C@@H](O)C[C@H]3O[C@@H]3/C=C/C(=O)O1)C[C@H](O)[C@H]2C(=O)O
3. CCOC(=O)[C@H](CCc1ccccc1)N[C@H]1CCc2ccccc2N(CC(=O)O)C1=O [Benazepril (hydrochloride)]

1: 1.47; 2: -1.51; 3: 3.34

Please give difference in startle response for each item listed below.
1. N[C@H](C(=O)O)[C@H](O)c1ccc(O)c(O)c1
2. N#Cc1cc(NC(=O)C(=O)O)c(Cl)c(NC(=O)C(=O)O)c1 [Lodoxamide]

0.64
3.04

====

Tested on: Danio rerio larvae (5 dpf)
Test Description: difference in startle response vs DMSO (percentage points); higher = stronger startle than DMSO
Protocol Conditions: 10 µM; exposure time 6 h
So I've got a bunch of molecules here, and I need their difference in startle response values.
One number for each entry.

[[record]]
molecule = "Nc1ncnc2c1ncn2[C@@H]1O[C@H](CO)[C@@H](O)[C@H]1O [Adenosine]"
reported_value = 6.58

[[record]]
molecule = "CCOc1cc(CC(=O)N[C@@H](CC(C)C)c2ccccc2N2CCCCC2)ccc1C(=O)O [Repaglinide]"
reported_value = 7.77

[[record]]
molecule = "NCCCCCC(=O)O [6-Aminocaproic Acid]"
reported_value = -0.142


Consider the record given below.
Please tell me: difference in startle response of Cc1nnc(C(C)C)n1C1C[C@H]2CC[C@@H](C1)N2CC[C@H](NC(=O)C1CCC(F)(F)CC1)c1ccccc1 (stereo in doubt) [Maraviroc] , system Danio rerio larvae (5 dpf)? -3.97

====

System: Danio rerio larvae (5 dpf)
Test Description: difference in startle response vs DMSO (percentage points); higher = stronger startle than DMSO
Protocol Conditions: 10 µM; exposure time 6 h
Where a name gives a salt, the structure may show the parent alone.
Criterion: difference in startle response meeting or surpassing 2. Met: Met. Not met: Not met.

[[record]]
compound = "C[C@@H](c1ncncc1F)[C@](O)(Cn1cncn1)c1ccc(F)cc1F [Voriconazole]"
discrete_label = "Met"

[[record]]
compound = "CCOC(=O)C1=C[C@@H](OC(CC)CC)[C@H](NC(C)=O)[C@@H](N)C1 [Oseltamivir (phosphate)]"
discrete_label = "Met"

[[record]]
compound = "CCCCCCCCc1ccc(CCC(N)(CO)CO)cc1 [Fingolimod]"
discrete_label = "Not met"

[[record]]
compound = "CCc1c(Cl)c(O)c(Cl)c(O)c1C(=O)O[C@H]1[C@H](O)[C@H](OC)[C@H](OCC2=CC=CC[C@H](O)C(C)=C[C@H](CC)[C@@H](O[C@@H]3OC(C)(C)C(OC(=O)C(C)C)[C@H](O)[C@@H]3O)C(C)=CC(C)=CC[C@@H]([C@@H](C)O)OC2=O)O[C@@H]1C (stereo not given in full) [Fidaxomycin]"
discrete_label = "Met"

[[record]]
compound = "CC(CCc1ccccc1)NCC(O)c1ccc(O)c(C(N)=O)c1 (stereo not given) [Labetalol (hydrochloride)]"
discrete_label = "Not met"

[[record]]
compound = "C[C@](N)(Cc1ccc(O)c(O)c1)C(=O)O [L-(-)-α-Methyldopa]"
discrete_label = "Not met"

[[record]]
compound = "COC(=O)[C@H](c1ccccc1Cl)N1CCc2sccc2C1 (racemic) [(±)-Clopidogrel (hydrochloride)]"
discrete_label = "Met"

[[record]]
compound = "CO[C@H]1O[C@@H]2O[C@@]3(C)CC[C@H]4[C@H](C)CC[C@@H]([C@H]1C)[C@@]24OO3 [Artemether]"
discrete_label = "Met"


State whether the measured difference in startle response reaches 2, counting equality as reaching it, for NS(=O)(=O)c1cc(C(=O)O)c(NCc2ccco2)cc1Cl [Furosemide] Not met

Thanks! And C=C[C@]1(C)C[C@@H](OC(=O)CS[C@@H]2C[C@H]3CC[C@@H](C2)N3C)[C@]2(C)[C@H](C)CC[C@]3(CCC(=O)[C@H]32)[C@@H](C)[C@@H]1O [Retapamulin] ? Met

Thanks! And CC(=O)OC[C@H]1O[C@@H]([S-])[C@H](OC(C)=O)[C@@H](OC(C)=O)[C@@H]1OC(C)=O.CCP(CC)CC.[Au+] [Auranofin] ? Not met

Thanks! And O=S(=O)(O)CCS [Mesna] ? Met

Thanks! And CC(C)(C)NC[C@H](O)COc1cccc2c1CCCC2=O [Levobunolol (hydrochloride)] ? Not met
